Data origin, for the record: PubChem BioAssay (NCI)

Test system: SF-268 CNS
Assay: NCI tumour cell line growth inhibition, 48 h
parameter_measured: TGI (µM)

1. COc1cccc(C2SC(C)C(=O)N2CCc2cccs2)c1 (stereo unspecified) | 13
2. O=[N+]([O-])c1ccc(O)c(/C=N/c2nc(-c3ccccc3)cs2)c1 | 78
3. Clc1ccc(C2CC(c3cccc(Nc4ccncc4)c3)=NN2c2cc(Cl)cc(Cl)c2)cc1 (stereo unspecified) | 3.59
4. Cc1c2ccccc2c(C)n2c1nc1ccccc12 | 30
5. N#C/C(=C\c1c(-c2ccccc2)[nH]c2ccccc12)C(=O)c1ccccc1 | 58.9
6. O=S(=O)(NC1=NCCN1C(=S)SN1CCn2c1nsc2=S)c1ccccc1Cl | 87.6
7. C=C1C(=O)OC2/C=C(\CO)CC/C=C(\CO)CC(OC(=O)C(C)C)C12 (stereo unspecified) | 19.8
8. CC(=O)[O-].[Zn].c1ccc(/C(=N\Nc2ccccn2)c2ccccn2)cc1 | 3.13
9. Cc1cc(N(CCCNc2ccnc3cc(Cl)ccc23)Cc2ccc3c(c2)OCO3)nc(N2CCCCC2)n1 | 6.21
